Where these numbers come from: ChEMBL document CHEMBL3507680

assay: Human HepG2 cell viability assay in 384 well format; assay type: toxicity, cell-based; parameters: dose 125 nL, time 70.5 hour; concentration not given beside the values; conditions: HepG2 cells, read-out: Inhibition
quantity.measured: cytotoxicity at 70.5 h
I'd appreciate it if you included the unit after the number.

Illustrative cases are given below, each with its answer.
molecule=O=C(c1c(O)cc(F)cc1F)N1CCc2cnccc21 quantity_measured="cytotoxicity at 70.5 h" recorded_measurement=0.9%
molecule=CNc1cc(CCNC(=O)C2CCCC2)nc(-c2ccccn2)n1 quantity_measured="cytotoxicity at 70.5 h" recorded_measurement=-8.09%
molecule="CC1CCN(c2ncc3c(n2)CN(C2CCS(=O)(=O)C2)C3=O)CC1 (centres undefined)" quantity_measured="cytotoxicity at 70.5 h" recorded_measurement=29%

Looking up CCOc1ccc(C2CC(=O)Nc3c2c(=O)nc2sccn32)cc1 (centres undefined) , I found its cytotoxicity at 70.5 h recorded as -31.7%

Looking up `CC(C)C(=O)NCCCNC(=O)Nc1cc(-c2ccccc2)ns1` , I found its cytotoxicity at 70.5 h recorded as -12.9%

Looking up COc1ccccc1C1CNC(=O)c2nc(-c3c(C)n[nH]c3C)[nH]c2C1 (centres undefined) , I found its cytotoxicity at 70.5 h recorded as -4.74%

Looking up COc1ccccc1OCc1cc(C(=O)N2CC=CC2C(C)C)n[nH]1 (centres undefined) , I found its cytotoxicity at 70.5 h recorded as -6.89%

Looking up O=C(CCn1ccccc1=O)N1CCCC(COc2ccc(F)cc2)C1 (centres undefined) , I found its cytotoxicity at 70.5 h recorded as -7.1%

Looking up Cc1cc(N2CCOC(c3ccccn3)C2)nc(N)n1 (centres undefined) , I found its cytotoxicity at 70.5 h recorded as -3.03%

Looking up `CN1CCN(c2ccccc2CNC(=O)CSC(F)(F)F)CC1` , I found its cytotoxicity at 70.5 h recorded as -6.98%

Looking up `CC(C)c1nsc(N2CCCOCC2)n1` , I found its cytotoxicity at 70.5 h recorded as 37.7%

Looking up CNC(=O)N1CCC2(COCc3c(C)nc(NCc4ccco4)nc32)C1 (centres undefined) , I found its cytotoxicity at 70.5 h recorded as -6.98%

Looking up `CC(=O)c1cccc(OCCCC(=O)N(C)Cc2cnn(C)c2)c1` , I found its cytotoxicity at 70.5 h recorded as 9.09%

Looking up O=C(c1cc(Cn2ccc3ccccc32)[nH]n1)N1CCCCC1CO (centres undefined) , I found its cytotoxicity at 70.5 h recorded as 10.4%

Looking up `CN1CCCC2(CC1)CCN(C(=O)CCc1ccccc1O)CC2` , I found its cytotoxicity at 70.5 h recorded as 6.16%

Looking up `CCOc1cccc(NC(=O)c2cc[nH]n2)n1` , I found its cytotoxicity at 70.5 h recorded as -3.18%

Looking up CCCC1(CO)CCCN(Cc2nccs2)C1 (centres undefined) , I found its cytotoxicity at 70.5 h recorded as -4.2%

Looking up `CN(CC1CC1)C(=O)c1cc2c(c(S(N)(=O)=O)c1)CCC2` , I found its cytotoxicity at 70.5 h recorded as 2.25%

Looking up `O=C(NCCc1nnc2n1CCC2)N(Cc1ccco1)C1CCCC1` , I found its cytotoxicity at 70.5 h recorded as -6.25%
